// provenance: patent US4254147A

Test: LD50 acute toxicity, rat (Litchfield and Wilcoxon method)
Conditions: in vivo, iv
Description: As known, carnitine contains an asimmetric atom and consequently exists in two stereoisomers. […] Thus, the LD50 in rats and mice assessed for various routes of administration according to the Litchfield and Wilcoxon method is as shown in the following Table A. (Litchfield, J. T., and Wilcoxon, F., J. Pharm. Exptl. Therap. 96, 99. 1949).
Endpoint: LD50 (mg/kg)

                               molecule  endpoint  observed
0  C[N+](C)(C)CC(O)CC(=O)[O-] (racemic)      LD50       995

###

Assay: LD50 acute toxicity, mouse (Litchfield and Wilcoxon method)
Conditions: in vivo, iv
Excerpt: As known, carnitine contains an asimmetric atom and consequently exists in two stereoisomers. […] Thus, the LD50 in rats and mice assessed for various routes of administration according to the Litchfield and Wilcoxon method is as shown in the following Table A. (Litchfield, J. T., and Wilcoxon, F., J. Pharm. Exptl. Therap. 96, 99. 1949).
Endpoint: LD50 (mg/kg)

>>> print(df.to_string())
                               compound  endpoint  result_unit  observed
0  C[N+](C)(C)CC(O)CC(=O)[O-] (racemic)      LD50        mg/kg       610

###

experiment: LD50 acute toxicity, rat (Litchfield and Wilcoxon method); conditions: in vivo, sc
Endpoint: LD50 (mg/kg)

>>> df
                        cpd_smiles  endpoint  observed
0  C[N+](C)(C)C[C@@H](O)CC(=O)[O-]      LD50     10000
